# assay-notes: Validation qHTS assay for inhibitors of Activation Induced Cytidine Deaminase (AID): UDG Counterscreen signal (AID 1347427); further: 0% is about no effect
# conditions-used: biochemical UDG counterscreen, fluorescence signal; series mostly up to 115 µM
The source made the active and inactive calls. The call rests on the fitted dose curve; in most records, active means well fitted curve in the direction sought with a large enough effect; inconclusive means small, poorly fitted or top-dose-only effect, or another doubt; inactive means no such curve, though single readings can be large or run the other way.
measurement-label: outcome

These recorded examples may help you get a feel for the data.
{"columns": ["compound", "measured-result"],
 "data": [
  ["COc1cc(N)c(Cl)cc1C(=O)OCCN1CCCCC1", "inactive"],
  ["CCCCCCCCCCC/C=C\\C(C)(C)/C=C\\CCCC(=O)O", "inactive"],
  ["CC(=O)O[C@H]1CC2(C)[C@@H](C[C@@H](O)[C@H]3[C@@]4(C)CC[C@@H](O)[C@@H](C)[C@@H]4CC[C@@]32C)C1=C(CCC=C(C)C)C(=O)O (stereo partly specified)", "inactive"],
  ["NC(=O)CNCCC(c1ccccc1)c1ccccc1", "inactive"],
  ["Cc1ccccc1/C=C/C1=NCCN1", "inactive"]
]}

compound S=C(S)N1CCCC1 , outcome observed: inactive

====

# subject-of-test: Chromobox protein homolog 1 (Homo sapiens) (UniProt P83916)
# Sequence (P83916 whole entry, looked up): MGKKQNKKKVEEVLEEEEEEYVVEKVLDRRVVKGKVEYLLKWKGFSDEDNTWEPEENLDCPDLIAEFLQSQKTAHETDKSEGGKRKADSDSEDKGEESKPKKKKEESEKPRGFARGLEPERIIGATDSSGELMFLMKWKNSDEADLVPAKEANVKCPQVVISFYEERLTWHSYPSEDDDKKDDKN
# assay-notes: qHTS Validation Assay for Inhibitors of HP1-beta Chromodomain Interactions with Methylated Histone Tails (AID 488953); further: nearly all actives have a fitted effect of over 50% in size
# conditions-used: HP1-beta chromodomain / methylated histone peptide binding assay; series mostly up to 114 µM
Records with an inconclusive call do not appear. The source made the active and inactive calls. The call rests on the fitted dose curve; in most records, active means well fitted inhibition curve with a large enough effect; inconclusive means small, poorly fitted or top-dose-only effect; inactive means no such curve, though single readings can be large or run the other way.
Log the outcome using a class from active, inactive

Worked cases, answers included:
{"columns": ["compound", "subject-of-test", "class"],
 "data": [
  ["C[C@H](NC(=O)/C(C#N)=C/c1ccc(O)c(O)c1)c1ccccc1", "Chromobox protein homolog 1 (Homo sapiens) (UniProt P83916)", "active"],
  ["O=C(c1ccc2c(c1)OCCO2)N1CCCCC1", "Chromobox protein homolog 1 (Homo sapiens) (UniProt P83916)", "inactive"],
  ["CC(=O)NNC(=O)N1Cc2ccccc2Oc2ccc(Cl)cc21", "Chromobox protein homolog 1 (Homo sapiens) (UniProt P83916)", "inactive"]
]}

Q: What was the test verdict on NCCCCN ?
A: inactive

Q: Record lookup: outcome of this test for CN(CC[C@@H](Oc1ccc(C(F)(F)F)cc1)c1ccccc1)CC(=O)O ?
A: inactive

Q: What classification did CC1=C(C(=O)O)N2C(=O)[C@@H](NC(=O)C(N)C3=CCC=CC3)[C@H]2SC1 (some centres not stated) end up with in this test?
A: inactive

Q: Just curious, what result did CC(C)NCC(O)COc1ccc(CC(N)=O)cc1 (configuration not stated) get here?
A: inactive

Q: # fetch the recorded call for COc1ccc2c(c1)c(CC(=O)O)c(C)n2C(=O)c1ccccc1 here
A: inactive

Q: Hi, sorry to bother you, what did the test record for O=C(O)/C=C/c1ccc(O)c(O)c1 ?
A: inactive

Q: Tell me the assay call for O=C(O)c1cc(=O)cc(C(=O)O)[nH]1 please.
A: inactive

Q: What did the test return for Fc1ccc(CN(C2=NCCN2)c2c(Cl)cccc2Cl)cc1 ?
A: inactive

Q: GET /call?item= O=c1ccn([C@@H]2O[C@H](COP(=O)(O)OP(=O)(O)O)[C@@H](O)[C@H]2O)c(=O)[nH]1 returns the recorded outcome of this test.
A: inactive

====

# assay-notes: qHTS Assay for Lipid Storage Modulators (AID 1519)
# conditions-used: Drosophila S3 cells, BODIPY lipid droplet/cell ratio, laser cytometry; measured here: lipid channel max response; cells loaded with oleic acid
Records with an inconclusive call do not appear.
Recorded max response for the following molecules
Value expressed in %; do not type the unit.

The following molecules have reported results that may help.
{"columns": ["molecule", "measurement-label", "u", "measured-result"],
 "data": [
  ["CC(=O)NCCc1c[nH]c2ccc(O)cc12", "max response", "%", 28.6],
  ["c1ccc(CN2CCC3(CCCc4ccccc43)CC2)cc1", "max response", "%", -39.4],
  ["CNCCNS(=O)(=O)c1cccc2cnccc12", "max response", "%", 5.52]
]}

// recorded max response for Nc1ccc2c3c(cccc13)C(=O)NC2=O : -11.3

So for C[C@@H](NCCc1ccc(O)cc1)[C@@H](O)c1ccc(O)cc1 , the logged max response turned out to be -23.8

Recorded result, COc1cc(C(O)CO)ccc1O (configuration not stated) , max response: -49.3

====

# assay-notes: qHTS drug screen for cell cycle checkpoint inhibitors in PARPi-resistant BRCA-mutant ovarian cancer cell lines. (AID 1963452)
# conditions-used: PEO1/OlaR viability, CellTiter-Glo luminescence, 96 h; measured here: PEO1 parental Z-AUC; stronger effect = lower value
# Description: Women's Malignancies Branch, Center for Cancer Research (CCR), National Cancer Institute (NCI), National Institutes of Health (NIH), Bethesda, MD Poly (ADP-ribose) polymerase inhibitors (PARPis) have changed the treatment paradigm in breast cancer gene (BRCA) - mutant high-grade serous ovarian carcinoma (HGSC). […] 6; Detection; Luminescence, PHERAstar (BMG Labtech) plate reader. […] 6. Luminescence readings were taken using PHERAstar (BMG Labtech). […]
Each entry below lists one item and its recorded Z-AUC value.
// keep it numeric: no unit symbol after the value

Previously resolved entries follow.
{"columns": ["structure-smiles", "Z-AUC"],
 "data": [
  ["CN(C)S(=O)(=O)c1ccc2c(c1)/C(=C/c1cc3c([nH]1)CCCC3)C(=O)N2", 0.668],
  ["O=C1Nc2ccc(I)cc2/C1=C/c1cc(Br)c(O)c(Br)c1", 0.638],
  ["CC1=C(/C=C/C(C)=C/C=C/C(C)=C\\C(=O)O)C(C)(C)CCC1", 0.115]
]}

Shift focus to the following entry.
Per the record, CCCc1c(OCCCOc2ccc(OCC(=O)O)cc2)ccc(C(C)=O)c1O has Z-AUC of 1.27

====

# assay-notes: qHTS for Inhibitors of ATXN expression: Validation of Cytotoxic Assay (AID 588349);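 further: cells exposed to compound for 72 hr; on the % scale 0 is the no-effect control and ±100 the full control effect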
# conditions-used: cytotoxicity counter-screen for ATXN expression inhibitors, cell viability; series mostly up to 57.1 µM
Inconclusive results are not listed. Active and inactive are the calls of the source. Calls follow the shape of the dose curve; as a rule, active = well fitted cell-killing curve with a large enough effect; inconclusive = small, poorly fitted or top-dose-only effect, or effect the other way; inactive = flat fitted curve, though single readings scatter.
measurement-label: outcome

{"columns": ["compound", "measured-result"],
 "data": [
  ["CCN(c1nc(N)c(C(=O)N=C(N)N)nc1Cl)C(C)C", "inactive"],
  ["CC[N+](CC)(CC)CC(=O)Nc1c(C)cccc1C", "inactive"],
  ["Nc1ncnc2c1nc(Sc1ccc(Cl)cc1)n2[C@H]1OC2COP(=O)(O)O[C@@H]2C1O (stereo partly drawn)", "inactive"],
  ["CC(C)NC[C@H](O)COc1ccc(CC(N)=O)cc1", "inactive"]
]}

Kindly consider the entry below.
Measured outcome of NC1CONC1=O (stereo not drawn) : inactive

====

# subject-of-test: Cytochrome P450 1A2 (Homo sapiens) (UniProt P05177)
# Sequence (P05177 whole entry, looked up): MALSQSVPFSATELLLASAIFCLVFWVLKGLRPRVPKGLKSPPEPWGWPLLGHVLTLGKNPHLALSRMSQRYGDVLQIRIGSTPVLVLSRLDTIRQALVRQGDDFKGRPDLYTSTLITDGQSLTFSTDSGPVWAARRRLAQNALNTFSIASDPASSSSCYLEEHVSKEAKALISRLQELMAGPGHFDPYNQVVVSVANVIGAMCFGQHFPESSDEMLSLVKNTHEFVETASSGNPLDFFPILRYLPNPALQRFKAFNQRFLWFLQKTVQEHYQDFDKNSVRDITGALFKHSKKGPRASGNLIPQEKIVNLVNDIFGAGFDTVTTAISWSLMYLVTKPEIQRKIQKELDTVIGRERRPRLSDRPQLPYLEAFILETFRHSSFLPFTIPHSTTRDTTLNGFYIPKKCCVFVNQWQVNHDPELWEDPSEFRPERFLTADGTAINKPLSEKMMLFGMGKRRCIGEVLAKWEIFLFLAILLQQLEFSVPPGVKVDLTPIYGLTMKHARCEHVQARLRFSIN
# assay-notes: p450-cyp1a2 (AID 410); further: potency means the concentration at half of the fitted maximal effect
# conditions-used: recombinant CYP1A2, luciferin-ME demethylation, luminescence; series mostly up to 57 µM
# Procedure: The P450 gene superfamily is involved in metabolism and the clearance of xenobiotics. This assay used human CYP1A2 to measure the demethylation of luciferin 6' methyl ether (Luciferin-ME; Promega-Glo) to luciferin. The luciferin is then measured by luminescence after the addition of a luciferase detection regeant. Luciferin-ME concentration in the assay was equal to its Km for CYP1A2. NCGC Assay Protocol Summary: […]
Inconclusive results are not listed. Activity calls are given as the source filed them. The call rests on the fitted dose curve.
measurement-label: Potency

Here's what some known entries look like.
{"columns": ["structure-smiles", "measured-result"],
 "data": [
  ["O=C(O)C1=CC(=C(c2ccc(O)c(C(=O)O)c2)c2ccc(O)c(C(=O)O)c2)C=CC1=O", "10 µM (active)"],
  ["COc1ccc(NC(=O)c2ccc(-c3ccc(-c4noc(C)n4)cc3C)cc2)cc1N1CCN(C)CC1", "inactive"],
  ["Cc1nc(N=Nc2ccc(C(=O)O)cc2)c(COP(=O)(O)O)c(C=O)c1O", "inactive"],
  ["O=C(N[C@@H](Cc1ccccc1)C(=O)CCl)OCc1ccccc1", "3.16 µM (active)"],
  ["CN(C)S(=O)(=O)c1ccc2c(c1)/C(=C/c1cc3c([nH]1)CCCC3)C(=O)N2", "0.316 µM (active)"]
]}

Per the records, this compound ( N#CC(C#N)=C(N)/C(C#N)=C/c1ccc(O)cc1 ) has Potency equal to 3.98 µM (active)

For COc1ccc2c(c1)c(CC(=O)O)c(C)n2Cc1ccc(Cl)cc1 the compound record lists Potency as 31.6 µM (active)

====

# subject-of-test: Hexokinase-4 (Homo sapiens) + Glucokinase regulatory protein (Homo sapiens) (UniProt P35557+Q14397)
# Sequence (P35557 whole entry, looked up): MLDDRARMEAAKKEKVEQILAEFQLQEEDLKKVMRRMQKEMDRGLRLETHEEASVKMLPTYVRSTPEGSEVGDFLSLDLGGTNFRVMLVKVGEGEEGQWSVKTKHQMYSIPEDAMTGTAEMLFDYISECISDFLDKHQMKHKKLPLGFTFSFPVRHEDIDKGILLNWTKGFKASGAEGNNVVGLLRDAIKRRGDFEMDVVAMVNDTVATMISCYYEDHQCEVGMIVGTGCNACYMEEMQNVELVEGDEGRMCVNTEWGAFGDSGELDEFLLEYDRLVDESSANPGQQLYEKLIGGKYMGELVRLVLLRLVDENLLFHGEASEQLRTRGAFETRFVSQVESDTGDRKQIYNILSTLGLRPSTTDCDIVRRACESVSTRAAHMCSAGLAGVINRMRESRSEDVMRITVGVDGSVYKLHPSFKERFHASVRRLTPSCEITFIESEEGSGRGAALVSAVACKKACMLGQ
# Sequence (Q14397 whole entry, looked up): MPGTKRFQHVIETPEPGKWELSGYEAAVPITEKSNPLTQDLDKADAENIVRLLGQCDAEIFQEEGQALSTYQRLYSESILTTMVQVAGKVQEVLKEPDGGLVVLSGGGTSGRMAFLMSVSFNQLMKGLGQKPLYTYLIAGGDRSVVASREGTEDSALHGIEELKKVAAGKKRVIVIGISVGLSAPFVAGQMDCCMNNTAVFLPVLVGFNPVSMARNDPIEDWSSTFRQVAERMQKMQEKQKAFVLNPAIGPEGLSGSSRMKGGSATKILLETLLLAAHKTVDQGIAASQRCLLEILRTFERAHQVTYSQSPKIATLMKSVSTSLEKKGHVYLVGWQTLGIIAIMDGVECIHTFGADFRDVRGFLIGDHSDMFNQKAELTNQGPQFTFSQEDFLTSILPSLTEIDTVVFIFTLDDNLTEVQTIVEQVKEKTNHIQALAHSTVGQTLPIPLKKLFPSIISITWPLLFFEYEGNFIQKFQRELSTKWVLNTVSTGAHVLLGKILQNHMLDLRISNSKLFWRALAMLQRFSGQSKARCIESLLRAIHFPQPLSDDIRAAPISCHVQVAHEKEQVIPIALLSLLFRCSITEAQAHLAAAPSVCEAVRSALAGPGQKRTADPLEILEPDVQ
# assay-notes: qHTS assay for inhibitors of recombinant human GCK-GKRP interaction: ADP-Glo assay (AID 743206);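 further: plate controls were DMSO plus enzyme for no effect and no enzyme for full effect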
# conditions-used: ADP-Glo luminescence, 60 min; series mostly up to 76.9 µM
The source made the active and inactive calls. Calls follow the shape of the dose curve; as a rule, active = well fitted curve in the direction sought with a large enough effect; inconclusive = small, poorly fitted or top-dose-only effect, or another doubt; inactive = no such curve, though single readings can be large or run the other way.
measurement-label: outcome

// below: answered molecules
{"columns": ["molecule", "outcome"],
 "data": [
  ["O=[N+]([O-])c1cccc2c(Br)[nH]nc12", "inactive"],
  ["CCCOC(=O)c1c(-c2ccccc2)nc(CC)c(C(=O)SCC)c1CCC", "inactive"],
  ["CC(C)C[C@H](NC(=O)C1OC1C(=O)O)C(=O)NCCCCN=C(N)N (some centres undefined)", "inactive"],
  ["C=CCN1CCc2cc(O)c(O)cc2C(c2ccccc2)C1 (centres undefined)", "inactive"],
  ["COc1cccc(OC)c1OCCNCC1CSc2ccccc2O1 (centres undefined)", "inactive"]
]}

Please fill in: outcome reported for COc1ccc(NC(=O)c2ccc(-c3ccc(-c4noc(C)n4)cc3C)cc2)cc1N1CCN(C)CC1 = inactive

Input CC[C@H](NC(=O)c1c(C)c(-c2ccccc2)nc2ccccc12)c1ccccc1 . Output outcome: inactive

response.value for CCCCS(=N)(=O)CC[C@H](N)C(=O)O (some centres undefined) (field: outcome) = inactive

Data origin: PubChem BioAssay (NCATS)
